Could you please report measured pKi for the items listed next?
target system: 5-hydroxytryptamine receptor 2A (Rattus norvegicus, UniProt P14842)
Sequence (P14842 whole entry): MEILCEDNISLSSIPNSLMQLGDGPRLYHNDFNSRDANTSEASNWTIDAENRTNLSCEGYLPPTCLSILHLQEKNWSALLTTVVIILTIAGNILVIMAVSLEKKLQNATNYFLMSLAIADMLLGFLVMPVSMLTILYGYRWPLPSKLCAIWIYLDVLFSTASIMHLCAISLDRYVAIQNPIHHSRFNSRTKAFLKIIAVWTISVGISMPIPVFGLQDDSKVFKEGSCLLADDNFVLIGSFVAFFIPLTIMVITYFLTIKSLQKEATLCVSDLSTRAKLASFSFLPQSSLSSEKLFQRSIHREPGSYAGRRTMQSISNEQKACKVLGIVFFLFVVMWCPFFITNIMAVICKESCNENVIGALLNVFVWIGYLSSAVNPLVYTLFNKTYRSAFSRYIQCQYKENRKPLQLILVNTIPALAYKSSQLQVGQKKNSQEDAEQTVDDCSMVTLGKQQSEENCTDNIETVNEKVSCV
Answer as the number alone; pKi is minus log10 of concentration in mol/L.

Q) Request the reported pKi associated with "NCCc1ccc(CCCc2ccccc2)cc1"
A) 7.22

Q) Request the reported pKi associated with COc1cccc(CC(C)N)c1OC (centres undefined)
A) 5.37

Q) Request the reported pKi associated with COc1cc(CC(C)N)cc(OC)c1Br (centres undefined)
A) 6.68

Q) Request the reported pKi associated with "COc1cc(CCCCc2ccccc2)c(OC)cc1CCN"
A) 6.94

Q) Request the reported pKi associated with COc1ccc(OC)c(CC(C)N)c1 (centres undefined)
A) 5.33

Q) Request the reported pKi associated with "COc1cc(CCCc2ccccc2)c(OC)cc1CCN"
A) 6.82

Q) Request the reported pKi associated with COc1ccc(CCCc2cc(OC)c(CC(C)N)cc2OC)cc1 (centres undefined)
A) 7.55

Q) Request the reported pKi associated with COc1c(CCCc2ccccc2)ccc(CC(C)N)c1OC (centres undefined)
A) 8.40

Q) Request the reported pKi associated with COc1cc(CC(C)N)cc(OC)c1CCCc1ccccc1 (centres undefined)
A) 8.40

Q) Request the reported pKi associated with COc1cc(CC(C)N)ccc1CCCc1ccccc1 (centres undefined)
A) 7.77

Q) Request the reported pKi associated with "COc1ccc(OC)c(CCN)c1"
A) 5.52

Q) Request the reported pKi associated with "COc1cc(CCN)c(OC)cc1Br"
A) 7.80

Q) Request the reported pKi associated with COc1cc(CCCc2ccccc2)ccc1CC(C)N (centres undefined)
A) 8.10

Q) Request the reported pKi associated with COc1cc(CC(C)N)c(OC)cc1CCCc1ccc(Cl)cc1 (centres undefined)
A) 7.92

Q) Request the reported pKi associated with COc1cc(CC(C)N)c(OC)cc1CCCc1ccccc1 (centres undefined)
A) 7.52

Q) Request the reported pKi associated with "COc1cc(CCc2ccccc2)c(OC)cc1CCN"
A) 7.43

Q) Request the reported pKi associated with CC(N)Cc1ccc(CCCc2ccccc2)cc1 (centres undefined)
A) 7.11

Q) Request the reported pKi associated with COc1cc(CC(C)N)c(OC)cc1CCc1ccccc1 (centres undefined)
A) 7.02

Q) Request the reported pKi associated with COc1cc(CCCc2ccccc2)cc(OC)c1CC(C)N (centres undefined)
A) 8.52

Q) Request the reported pKi associated with COc1cc(CC(C)N)c(OC)cc1CCCCc1ccccc1 (centres undefined)
A) 8.10
